Recorded normalized growth, one value per entry.
Assay: chemical genetic growth profiling, strain panel (AID 1159580);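 further: tested at 20 µM; growth read once vehicle control cultures reached saturation at 30 °C; 1 = growth at the plate median or of vehicle wells; lower values mean less growth of the strain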
Conditions: S. cerevisiae deletion strains, growth OD, locus YLR330W, strain CHS5, stronger effect = lower value
The whole screen tested about 5,500 compounds, of which about 2,000 (36%) were called active. Roughly 18% stayed inconclusive and do not appear here. Some of the results follow.
READOUT: normalized growth

1) O=C(O)c1cccnc1Nc1cccc(C(F)(F)F)c1 : 0.943
2) COC(=O)Oc1ccccc1C(=O)O : 1.01
3) C=C(C)[C@H]1CC=C(C(=O)O)CC1 : 0.99

###

Test: chemical genetic growth profiling, strain panel (AID 1159580);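 further: tested at 20 µM; growth read once vehicle control cultures reached saturation at 30 °C; 1 = growth at the plate median or of vehicle wells; lower values mean less growth of the strain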
Settings: S. cerevisiae deletion strains, growth OD, locus YOR231W, strain MKK1, stronger effect = lower value
Out of some 5,500 compounds screened, about 2,000 (36%) were called active. About 18% were inconclusive and are not listed. The list shows a part of the results.
READOUT: normalized growth

1) O=[N+]([O-])/C=C/c1ccc(F)cc1 : 0.106 (active)
2) CSc1ccc(/C=C(\C)[N+](=O)[O-])cc1 : 0.137 (active)
3) CC1(C)CCCC2(C)C3C1[C@@H](O)C2(C)C[C@H]3O (some centres not stated) : 0.977 (inactive)
4) COc1cc2c(c(OC)c1OC)-c1ccc(OC)c(=O)cc1[C@@H](NC(C)=O)CC2 : 1.03 (inactive)
5) CC(C)c1ccc(NCC(O)CSc2ccccc2)cc1 (configuration not stated) : 0.634 (inactive)
6) O=C(O)CCCCC1CCSS1 (configuration not stated) : 0.892 (inactive)
7) CS(=O)(=O)CCCCN=C=S : 0.684 (active)
8) Cc1c2c(=O)[nH]ncc2c(-c2ccccc2)n1-c1ccc([N+](=O)[O-])cc1 : 0.936 (inactive)
9) C/C=C/c1ccc2c(c1)OCO2 : 0.959 (inactive)
10) O=[N+]([O-])c1ccccc1CS(=O)(=O)c1nc2ccccc2s1 : 0.91 (inactive)
11) C/C(=C\c1ccc2c(c1)OCO2)[N+](=O)[O-] : 0.108 (active)
12) CC(C)(C)NCC(O)c1ccccc1Cl (configuration not stated) : 0.99 (inactive)
